Test: total protein half-life in vivo (active degradation + dilution); higher = more stable protein
Details: E. coli NCM3722 delta-clpP; growth: N-lim chemostat; doubling time 6 h
Each entry below lists one item and its recorded total protein half-life in vivo value.
Express the result in h but write the number alone.

Guide cases for total protein half-life in vivo, answers given:
| sequence_text | quantity_unit | total protein half-life in vivo |
| --- | --- | --- |
| MSEALLNAGRQTLMLELQEASRLPERLGDDFVRAANIILHCEGKVVVSGIGKSGHIGKKIAATLASTGTPAFFVHPAEALHGDLGMIESRDVMLFISYSGGAKELDLIIPRLEDKSIALLAMTGKPTSPLGLAAKAVLDISVEREACPMHLAPTSSTVNTLMMGDALAMAVMQARGFNEEDFARSHPAGALGARLLNKVHHLMRRDDAIPQVALTASVMDAMLELSRTGLGLVAVCDAQQQVQGVFTDGDLRRWLVGGGALTTPVNEAMTVGGTTLQSQSRAIDAKEILMKRKITAAPVVDENGKLTGAINLQDFYQAGII | h | 4.77 |
| MKRYTPDFPEMMRLCEMNFSQLRRLLPRNDAPGETVSYQVANAQYRLTIVESTRYTTLVTIEQTAPAISYWSLPSMTVRLYHDAMVAEVCSSQQIFRFKARYDYPNKKLHQRDEKHQINQFLADWLRYCLAHGAMAIPVY [P0ADU7] | h | 5.73 |
| MQDSILTTVVKDIDGEVTTLEKFAGNVLLIVNVASKCGLTPQYEQLENIQKAWVDRGFMVLGFPCNQFLEQEPGSDEEIKTYCTTTWGVTFPMFSKIEVNGEGRHPLYQKLIAAAPTAVAPEESGFYARMVSKGRAPLYPDDILWNFEKFLVGRDGKVIQRFSPDMTPEDPIVMESIKLALAK | h | 4.68 |

Continue with the sequence presented below.
# lookup: total protein half-life in vivo of MPALDLIRPSVTAMRVIASVNADFARELKLPPHIRSLGLISADSDDVTYIAADEATKQAMVEVVYGRSLYAGAAHGPSPTAGEVLIMLGGPNPAEVRAGLDAMIAHIENGAAFQWANDAQDTAFLAHVVSRTGSYLSSTAGITLGDPMAYLVAPPLEATYGIDAALKSADVQLATYVPPPSETNYSAAFLTGSQAACKAACNAFTDAVLEIARNPIQRA 4.87

* * *

Assay: total protein half-life in vivo (active degradation + dilution); higher = more stable protein
Details: E. coli NCM3722 delta-smpB; growth: N-lim chemostat; doubling time 6 h
Each entry below lists one item and its recorded total protein half-life in vivo value.
Express the result in h but write the number alone.

| sequence_text | total protein half-life in vivo (h) |
| --- | --- |
| MKGRWVKYLLMGTVVAMLAACSSKPTDRGQQYKDGKFTQPFSLVNQPDAVGAPINAGDFAEQINHIRNSSPRLYGNQSNVYNAVQEWLRAGGDTRNMRQFGIDAWQMEGADNYGNVQFTGYYTPVIQARHTRQGEFQYPIYRMPPKRGRLPSRAEIYAGALSDKYILAYSNSLMDNFIMDVQGSGYIDFGDGSPLNFFSYAGKNGHAYRSIGKVLIDRGEVKKEDMSMQAIRHWGETHSEAEVRELLEQNPSFVFFKPQSFAPVKGASAVPLVGRASVASDRSIIPPGTTLLAEVPLLDNNGKFNGQYELRLMVALDVGGAIKGQHFDIYQGIGPEAGHRAGWYNHYGRVWVLKTAPGAGNVFSG [P0A935] | 3 |
| MHPRFQTAFAQLADNLQSALEPILADKYFPALLTGEQVSSLKSATGLDEDALAFALLPLAAACARTPLSNFNVGAIARGVSGTWYFGANMEFIGATMQQTVHAEQSAISHAWLSGEKALAAITVNYTPCGHCRQFMNELNSGLDLRIHLPGREAHALRDYLPDAFGPKDLEIKTLLMDEQDHGYALTGDALSQAAIAAANRSHMPYSKSPSGVALECKDGRIFSGSYAENAAFNPTLPPLQGALILLNLKGYDYPDIQRAVLAEKADAPLIQWDATSATLKALGCHSIDRVLLA [P0ABF6] | 4.89 |
| MKTLGEFIVEKQHEFSHATGELTALLSAIKLGAKIIHRDINKAGLVDILGASGAENVQGEVQQKLDLFANEKLKAALKARDIVAGIASEEEDEIVVFEGCEHAKYVVLMDPLDGSSNIDVNVSVGTIFSIYRRVTPVGTPVTEEDFLQPGNKQVAAGYVVYGSSTMLVYTTGCGVHAFTYDPSLGVFCLCQERMRFPEKGKTYSINEGNYIKFPNGVKKYIKFCQEEDKSTNRPYTSRYIGSLVADFHRNLLKGGIYLYPSTASHPDGKLRLLYECNPMAFLAEQAGGKASDGKERILDIIPETLHQRRSFFVGNDHMVEDVERFIREFPDA [P0A993] | 3.21 |
| MTAPLTLLIVEDETPLAEMHAEYIRHIPGFSQILLAGNLAQARMMIERFKPGLILLDNYLPDGRGINLLHELVQAHYPGDVVFTTAASDMETVSEAVRCGVFDYLIKPIAYERLGQTLTRFRQRKHMLESIDSASQKQIDEMFNAYARGEPKDELPTGIDPLTLNAVRKLFKEPGVQHTAETVAQALTISRTTARRYLEYCASRHLIIAEIVHGKVGRPQRIYHSG [P0AEF4] | 3.22 |

Continue with the sequence presented below.
# lookup: total protein half-life in vivo of MSRFIPIELHHASRLLNHGPTVLITSFDEQSQRRNIMAAAWSMPVEFEPPRVAIVVDKSTWTRELIEHNGKFGIVIPGVAATNWTWAVGSVSGRDEDKFNCYGIPVVRGPVFGLPLVEEKCLAWMECRLLPATSAQEEYDTLFGEVVSAAADARVFVEGRWQFDDDKLNTLHHLGAGTFVTSGKRVTAG 4.19
